Assay: Tissue distribution in mice after oral administration
Type: in vivo, female C57Bl/6 mice
Details: female, C57Bl/6, mouse, ileum, oral 10 mg/kg, 0.5 h, mean ± SD, read-out: Ileum concentration
Method: Limited tissue (liver, intestine) distribution studies were conducted in female C57Bl/6 mice ([…]) at 0.5, 1, 2, 3, 5, 7, and 24 hours following oral administration of compound of Formula 1 at a dose of 10 mg/kg formulated as a solution in 20% HP-β-CD. […] All tissues (except plasma) were homogenized in sterile water and compound of Formula I concentrations were determined using LC-MS/MS. […]

{"molecule": "CC(C)(O)CNC(=O)Cc1nc2cnc3[nH]ccc3c2n1[C@H]1CC[C@H](CC#N)CC1 [Compound of Formula I]", "concentration at 0.5 h [ng/g]": 73.8}

----------
assay: Tissue distribution in mice after oral administration; assay type: in vivo, female C57Bl/6 mice; conditions: female, C57Bl/6, mouse, liver, oral 10 mg/kg, 2 h, mean ± SD, read-out: Liver concentration

{"compound": "CC(C)(O)CNC(=O)Cc1nc2cnc3[nH]ccc3c2n1[C@H]1CC[C@H](CC#N)CC1 [Compound of Formula I]", "concentration at 2 h": "84.5 ng/g"}

----------
assay: Tissue distribution in mice after oral administration; assay type: in vivo, female C57Bl/6 mice; conditions: female, C57Bl/6, mouse, plasma, oral 10 mg/kg, 3 h, mean ± SD, read-out: Plasma concentration

{"compound": "CC(C)(O)CNC(=O)Cc1nc2cnc3[nH]ccc3c2n1[C@H]1CC[C@H](CC#N)CC1 [Compound of Formula I]", "concentration at 3 h / ng/mL": 3.2}

----------
assay: Tissue distribution in mice after oral administration; type: in vivo, female C57Bl/6 mice; conditions: female, C57Bl/6, mouse, colon, oral 10 mg/kg, 1 h, mean ± SD, read-out: Colon concentration
quantity_name: concentration at 1 h (ng/g)

{"compound": "CC(C)(O)CNC(=O)Cc1nc2cnc3[nH]ccc3c2n1[C@H]1CC[C@H](CC#N)CC1 [Compound of Formula I]", "unit_symbol": "ng/g", "observed_value": 5110}

----------
assay: Tissue distribution in rats after oral administration; format: in vivo, male Sprague-Dawley rats; conditions: male, Sprague-Dawley, rat, kidney, PO 25 mg/kg, 5 h, average ±SD, read-out: Kidney concentration
quantity_name: concentration at 5 h (ng/g)

{"smiles_repr": "CC(C)(O)CNC(=O)Cc1nc2cnc3[nH]ccc3c2n1[C@H]1CC[C@H](CC#N)CC1", "unit_symbol": "ng/g", "observed_value": 12.9}

----------
assay: Tissue distribution in rats after oral administration; format: in vivo, male Sprague-Dawley rats; conditions: male, Sprague-Dawley, rat, ileum tissue, PO 25 mg/kg, 5 h, average, N = 3, read-out: Ileum Tissue concentration
quantity_name: concentration at 5 h (ng/g)

{"smiles_repr": "CC(C)(O)CNC(=O)Cc1nc2cnc3[nH]ccc3c2n1[C@H]1CC[C@H](CC#N)CC1", "quantity_name": "concentration at 5 h", "observed_value": 18000}

----------
assay: Tissue distribution in rats after oral administration; type: in vivo, male Sprague-Dawley rats; conditions: male, Sprague-Dawley, rat, duodenum lumen content, PO 25 mg/kg, 3 h, average, N = 3, read-out: Duod. Content concentration

{"smiles_repr": "CC(C)(O)CNC(=O)Cc1nc2cnc3[nH]ccc3c2n1[C@H]1CC[C@H](CC#N)CC1", "concentration at 3 h / ng/mL": 15800}

----------
assay: Tissue distribution in rats after oral administration; assay type: in vivo, male Sprague-Dawley rats; conditions: male, Sprague-Dawley, rat, plasma, PO 25 mg/kg, 7 h, average ±SD, read-out: Plasma concentration
quantity_name: concentration at 7 h (ng/mL)

{"smiles_repr": "CC(C)(O)CNC(=O)Cc1nc2cnc3[nH]ccc3c2n1[C@H]1CC[C@H](CC#N)CC1", "quantity_name": "concentration at 7 h", "unit_symbol": "ng/mL", "observed_value": 2.1}

----------
assay: Tissue distribution in rats after oral administration; format: in vivo, male Sprague-Dawley rats; details: male, Sprague-Dawley, rat, liver, PO 25 mg/kg, 2 h, average ±SD, read-out: Liver concentration

{"molecule": "CC(C)(O)CNC(=O)Cc1nc2cnc3[nH]ccc3c2n1[C@H]1CC[C@H](CC#N)CC1 [Compound of Formula I]", "concentration at 2 h": "49.9 ng/g"}

----------
experiment: Tissue distribution in rats after oral administration; assay type: in vivo, male Sprague-Dawley rats; conditions: male, Sprague-Dawley, rat, ileum lumen content, PO 25 mg/kg, 2 h, average, N = 3, read-out: Ileum Content concentration

{"molecule": "CC(C)(O)CNC(=O)Cc1nc2cnc3[nH]ccc3c2n1[C@H]1CC[C@H](CC#N)CC1 [Compound of Formula I]", "unit_symbol": "µg/mL", "concentration at 2 h": 725}

----------
assay: Serum and colon concentrations in explant studies SS-1 and SS-2; type: in vivo, C57BL/6 mice; conditions: C57BL/6, mouse, serum, po, 25 mg/kg, SS-1; mice, 4 hours post oral dose 25 mg/kg; mean±SEM; read-out: Serum concentration

{"smiles_repr": "CC(C)(O)CNC(=O)Cc1nc2cnc3[nH]ccc3c2n1[C@H]1CC[C@H](CC#N)CC1", "unit_symbol": "nM", "concentration at 4 h": 4.9}

----------
test: Tissue distribution in rats after oral administration; format: in vivo, male Sprague-Dawley rats; settings: male, Sprague-Dawley, rat, ileum tissue, PO 25 mg/kg, 0.5 h, average, N = 3, read-out: Ileum Tissue concentration

{"smiles_repr": "CC(C)(O)CNC(=O)Cc1nc2cnc3[nH]ccc3c2n1[C@H]1CC[C@H](CC#N)CC1", "concentration at 0.5 h, ng/g": 1340}

----------
assay: Tissue distribution in mice after oral administration; format: in vivo, female C57Bl/6 mice; conditions: female, C57Bl/6, mouse, ileum, oral 10 mg/kg, 3 h, mean ± SD, read-out: Ileum concentration

{"compound": "CC(C)(O)CNC(=O)Cc1nc2cnc3[nH]ccc3c2n1[C@H]1CC[C@H](CC#N)CC1 [Compound of Formula I]", "unit_symbol": "ng/g", "concentration at 3 h": 16400}

----------
experiment: Tissue distribution in rats after oral administration; format: in vivo, male Sprague-Dawley rats; conditions: male, Sprague-Dawley, rat, colon tissue, PO 25 mg/kg, 0.5 h, average, N = 3, read-out: Colon Tissue concentration

{"smiles_repr": "CC(C)(O)CNC(=O)Cc1nc2cnc3[nH]ccc3c2n1[C@H]1CC[C@H](CC#N)CC1", "unit_symbol": "ng/g", "concentration at 0.5 h": 946}

----------
test: Tissue distribution in rats after oral administration; format: in vivo, male Sprague-Dawley rats; settings: male, Sprague-Dawley, rat, plasma, PO 25 mg/kg, 2 h, average ±SD, read-out: Plasma concentration

{"smiles_repr": "CC(C)(O)CNC(=O)Cc1nc2cnc3[nH]ccc3c2n1[C@H]1CC[C@H](CC#N)CC1", "concentration at 2 h, ng/mL": 3.7}

----------
Assay: Tissue distribution in rats after oral administration
Assay type: in vivo, male Sprague-Dawley rats
Conditions: male, Sprague-Dawley, rat, jejunum lumen content, PO 25 mg/kg, 7 h, average, N = 3, read-out: Jejunum Content concentration
Procedure: Preliminary tissue distribution studies were conducted in male Sprague-Dawley rats (N=3/time point) at 0.5, 1, 2, 3, 5, 7, and 24 hours following oral administration of compound of Formula I at a dose of 25 mg/kg. The following tissues were harvested for compound concentration analysis: liver, kidney, brain, muscle, epididymis fat, duodenum, jejunum, ileum, colon (both lumen content and tissue), and plasma. […]
quantity_name: concentration at 7 h (ng/mL)

{"compound": "CC(C)(O)CNC(=O)Cc1nc2cnc3[nH]ccc3c2n1[C@H]1CC[C@H](CC#N)CC1 [Compound of Formula I]", "unit_symbol": "ng/mL", "observed_value": 10300}

----------
test: Serum and colon concentrations in explant studies SS-1 and SS-2; assay type: in vivo, C57BL/6 mice; details: C57BL/6, mouse, colon, po, 25 mg/kg, SS-1; mice, 4 hours post oral dose 25 mg/kg; mean±SEM; read-out: Colon concentration

{"smiles_repr": "CC(C)(O)CNC(=O)Cc1nc2cnc3[nH]ccc3c2n1[C@H]1CC[C@H](CC#N)CC1", "concentration at 4 h [ng/g]": 27500}

----------
test: Tissue distribution in rats after oral administration; assay type: in vivo, male Sprague-Dawley rats; conditions: male, Sprague-Dawley, rat, ileum lumen content, PO 25 mg/kg, 7 h, average, N = 3, read-out: Ileum Content concentration
quantity_name: concentration at 7 h (µg/mL)

{"smiles_repr": "CC(C)(O)CNC(=O)Cc1nc2cnc3[nH]ccc3c2n1[C@H]1CC[C@H](CC#N)CC1", "observed_value": 133}

----------
assay: Serum and colon concentrations in explant studies SS-1 and SS-2; assay type: in vivo, C57BL/6 mice; conditions: C57BL/6, mouse, colon, po, 25 mg/kg, SS-2; mice, 4 hours post oral dose 25 mg/kg; mean±SEM; read-out: Colon concentration

{"smiles_repr": "CC(C)(O)CNC(=O)Cc1nc2cnc3[nH]ccc3c2n1[C@H]1CC[C@H](CC#N)CC1", "concentration at 4 h [ng/g]": 22900}
